Tested on: P19^R strain rv1751 H97Y/N
Assay type: cell-based, Mycobacterium tuberculosis
Assay metric: MIC H97Y/N
Could you write the number and then its unit?

O=c1cc(CC2CCCCC2)[nH]c2c(-c3ccc(Cl)cc3)cnn12 [Compound 2, reference compound]: 0.39 µM
Cc1nn2c(=O)cc(-c3ccccc3)[nH]c2c1-c1ccccc1: 1.56 µM
Cc1nn2c(=O)cc(-c3ccc(Cl)c(Cl)c3)[nH]c2c1-c1ccc(F)cc1: 6.25 µM

# batch: return MIC H97Y/N for each of the 3 molecules below
1. COc1ccc(-c2cc(=O)n3nc(C)c(-c4ccc(F)cc4)c3[nH]2)cc1 [Compound 4, reference compound]
2. Cc1nn2c(=O)cc(-c3ccc(F)c(F)c3)[nH]c2c1-c1ccccc1
3. NNC(=O)c1ccncc1 [INH, isoniazid, reference compound]

Result block:
1.56 µM
1.56 µM
0.04 µM

* * *

I'd appreciate it if you could supply MIC P152S values for the items below.
Tested on: P19^R strain rv1751 P152S
Type: cell-based, Mycobacterium tuberculosis
Give bare numbers, in µM.

Worked set:
NNC(=O)c1ccncc1 [INH, isoniazid, reference compound]: 0.04
Cc1nn2c(=O)cc(-c3ccc(Cl)c(Cl)c3)[nH]c2c1-c1ccc(F)cc1: 3.90
Cc1nn2c(=O)cc(-c3ccc(F)c(F)c3)[nH]c2c1-c1ccccc1: 1.56
Cc1nn2c(=O)cc(-c3ccccc3)[nH]c2c1-c1ccccc1: 2.3
COc1ccc(-c2cc(=O)n3nc(C)c(-c4ccc(F)cc4)c3[nH]2)cc1 [Compound 4, reference compound]: 2.3

Consider now this further compound.
Query block: For P19^R strain rv1751 P152S, provide MIC P152S of O=c1cc(CC2CCCCC2)[nH]c2c(-c3ccc(Cl)cc3)cnn12 [Compound 2, reference compound] please.
Result block: 1.2

* * *

System: P19^R strain rv1751 L250Q
Format: cell-based, Mycobacterium tuberculosis
I'd appreciate it if you could supply fold change L250Q values for the items below.
Give bare numbers.

COc1ccc(-c2cc(=O)n3nc(C)c(-c4ccc(F)cc4)c3[nH]2)cc1 [Compound 4, reference compound]: 3
Cc1nn2c(=O)cc(-c3ccccc3)[nH]c2c1-c1ccccc1: 2.6
Cc1nn2c(=O)cc(-c3ccc(Cl)c(Cl)c3)[nH]c2c1-c1ccc(F)cc1: 4

# batch: return fold change L250Q for each of the 2 compounds below
1. Cc1nn2c(=O)cc(-c3ccc(F)c(F)c3)[nH]c2c1-c1ccccc1
2. O=c1cc(CC2CCCCC2)[nH]c2c(-c3ccc(Cl)cc3)cnn12 [Compound 2, reference compound]

Result block:
1. 3
2. 3

* * *

Test system: P19^R strain rv1751 A434T
Format: cell-based, Mycobacterium tuberculosis
# label = yes if MIC A434T < 2 µM else no

Query block: Find out if reported MIC A434T for NNC(=O)c1ccncc1 [INH, isoniazid, reference compound] is less than 2 µM
Result block: yes

Query block: Find out if reported MIC A434T for O=c1cc(CC2CCCCC2)[nH]c2c(-c3ccc(Cl)cc3)cnn12 [Compound 2, reference compound] is less than 2 µM
Result block: yes

Query block: Find out if reported MIC A434T for Cc1nn2c(=O)cc(-c3ccc(Cl)c(Cl)c3)[nH]c2c1-c1ccc(F)cc1 is less than 2 µM
Result block: no

Query block: Find out if reported MIC A434T for Cc1nn2c(=O)cc(-c3ccc(F)c(F)c3)[nH]c2c1-c1ccccc1 is less than 2 µM
Result block: yes

Query block: Find out if reported MIC A434T for Cc1nn2c(=O)cc(-c3ccccc3)[nH]c2c1-c1ccccc1 is less than 2 µM
Result block: yes

Query block: Find out if reported MIC A434T for COc1ccc(-c2cc(=O)n3nc(C)c(-c4ccc(F)cc4)c3[nH]2)cc1 [Compound 4, reference compound] is less than 2 µM
Result block: no

* * *

I'd appreciate it if you could supply fold change L399W values for the items below.
Tested on: P19^R strain rv1751 L399W
Assay type: cell-based, Mycobacterium tuberculosis
Numbers only.

Worked set:
Cc1nn2c(=O)cc(-c3ccc(F)c(F)c3)[nH]c2c1-c1ccccc1: 16
O=c1cc(CC2CCCCC2)[nH]c2c(-c3ccc(Cl)cc3)cnn12 [Compound 2, reference compound]: 1
Cc1nn2c(=O)cc(-c3ccccc3)[nH]c2c1-c1ccccc1: 10
Cc1nn2c(=O)cc(-c3ccc(Cl)c(Cl)c3)[nH]c2c1-c1ccc(F)cc1: 12

Query block: So what's the measured fold change L399W for this one? COc1ccc(-c2cc(=O)n3nc(C)c(-c4ccc(F)cc4)c3[nH]2)cc1 [Compound 4, reference compound]
Result block: 2

* * *

Tested on: P19^R strain rv1751 H97Y/N
Format: cell-based, Mycobacterium tuberculosis
Assay metric: fold change H97Y/N
One number for each entry.

Worked set:
COc1ccc(-c2cc(=O)n3nc(C)c(-c4ccc(F)cc4)c3[nH]2)cc1 [Compound 4, reference compound]: 1
O=c1cc(CC2CCCCC2)[nH]c2c(-c3ccc(Cl)cc3)cnn12 [Compound 2, reference compound]: 1

# batch: return fold change H97Y/N for each of the 2 molecules below
1. Cc1nn2c(=O)cc(-c3ccc(Cl)c(Cl)c3)[nH]c2c1-c1ccc(F)cc1
2. Cc1nn2c(=O)cc(-c3ccc(F)c(F)c3)[nH]c2c1-c1ccccc1

Result block:
1. 4
2. 2

Query block: So what's the measured fold change H97Y/N for this one? Cc1nn2c(=O)cc(-c3ccccc3)[nH]c2c1-c1ccccc1
Result block: 1.3
